- study_system: P2X purinoceptor 7 (Homo sapiens) (UniProt Q99572)
- Sequence (whole entry): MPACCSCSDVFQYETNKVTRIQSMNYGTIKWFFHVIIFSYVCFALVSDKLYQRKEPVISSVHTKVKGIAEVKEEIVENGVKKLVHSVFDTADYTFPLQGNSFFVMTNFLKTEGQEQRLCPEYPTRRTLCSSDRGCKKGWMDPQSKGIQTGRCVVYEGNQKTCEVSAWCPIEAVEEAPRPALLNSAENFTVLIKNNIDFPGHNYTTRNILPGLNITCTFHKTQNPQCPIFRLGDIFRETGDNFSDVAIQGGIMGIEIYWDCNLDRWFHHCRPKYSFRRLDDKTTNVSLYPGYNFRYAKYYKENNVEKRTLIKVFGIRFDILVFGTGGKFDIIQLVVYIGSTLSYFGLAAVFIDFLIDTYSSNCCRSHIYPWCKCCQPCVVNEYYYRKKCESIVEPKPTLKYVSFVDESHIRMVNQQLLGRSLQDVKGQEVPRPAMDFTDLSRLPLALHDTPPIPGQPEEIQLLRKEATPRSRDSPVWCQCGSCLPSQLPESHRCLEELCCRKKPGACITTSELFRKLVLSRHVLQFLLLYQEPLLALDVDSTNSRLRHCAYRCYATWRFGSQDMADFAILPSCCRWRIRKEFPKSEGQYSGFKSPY
- measurement_description: Inhibition of human P2X7 expressed in human HEK293 cells assessed as reduction in BzATP-stimulated TO-PRO-3 incorporation at 10 uM preincubated with compound and TO-PRO-3 for 15 mins prior to BzATP addition and measured after 1 hr by Fluo-3AM dye based flow cytometry relative to control
- Assay type: cell-based
Calls of active or inactive are those of the source. No rule for the calls is given here.
quantity_measured: inhibition

These solved cases illustrate the format of a correct answer.
{"compound": "O=C(NCc1ccc(Cl)cc1Cl)[C@@H]1CCC(=O)N1Cc1ccc([N+](=O)[O-])cc1", "inhibition": "0%"}
{"compound": "O=C1CC[C@@H](C(=O)NCc2ccccc2Cl)N1", "inhibition": "inactive"}
{"compound": "CCCCCCN1C(=O)[C@@H]2CCC(=O)N2C1N(C)C (stereo partly specified)", "inhibition": "0%"}
{"compound": "COC(=O)[C@@H]1CCC(=O)N1c1ccccc1", "inhibition": "inactive"}
{"compound": "N#Cc1ccc(N2C(=O)CC[C@H]2C(=O)NCc2ccc(Cl)cc2Cl)cc1", "inhibition": "0%"}

q: Query: inhibition; subject: `COC(=O)[C@@H]1C/C(=C\NCc2ccc(Cl)cc2Cl)C(=O)N1C(=O)OC`
a: 99%

* * *

- Test system: OVCAR-8
- measurement_description: Cytotoxicity against human OVCAR8 cells assessed as effect on cell growth at 10 uM incubated for 48 hrs by sulforhodamine B assay
- Type: cell-based
- measurement_parameters: ovcar-8, 48 h
quantity_measured: Activity

These solved cases illustrate the format of a correct answer.
{"compound": "O=C(NCc1ccc(Cl)cc1Cl)[C@@H]1CCC(=O)N1c1ccc(Cl)cc1", "Activity": "Non-Toxic"}
{"compound": "CN(C)/C=C1\\C[C@H]2C(=O)N(/C(=C/N(C)C)c3ccncc3)C(N(C)C)N2C1=O (some centres undefined)", "Activity": "Non-Toxic"}
{"compound": "O=C(NCc1ccc(Cl)cc1Cl)[C@@H]1CCC(=O)N1C(c1ccc(Cl)cc1)c1ccc(Cl)cc1", "Activity": "Non-Toxic"}
{"compound": "COc1ccc(CN2C(=O)CC[C@H]2C(=O)NCCc2ccccc2)cc1", "Activity": "Non-Toxic"}
{"compound": "COc1ccc(CNC(=O)[C@@H]2CCC(=O)N2Cc2ccc(Cl)cc2Cl)c(OC)c1", "Activity": "Non-Toxic"}

q: Form field - read-out: Activity; system: OVCAR-8; submitted item: `O=C(NCc1ccc(Cl)cc1Cl)[C@@H]1CCC(=O)N1c1cncs1`
a: Non-Toxic

q: Form field - read-out: Activity; system: OVCAR-8; submitted item: COc1ccc(CN2C(=O)[C@@H]3C/C(=C\N(C)C)C(=O)N3C2N(C)C)c(OC)c1 (some centres undefined)
a: Non-Toxic

q: Form field - read-out: Activity; system: OVCAR-8; submitted item: `COC(=O)[C@@H]1C/C(=C\NCc2ccc(Cl)cc2Cl)C(=O)N1C(=O)OC`
a: Non-Toxic

q: Form field - read-out: Activity; system: OVCAR-8; submitted item: O=C1CCCC(C(=O)NCc2ccc(Cl)cc2Cl)N1 (centres undefined)
a: Non-Toxic

q: Form field - read-out: Activity; system: OVCAR-8; submitted item: `O=C1N[C@H](C(=O)NCc2ccc(Cl)cc2Cl)C/C1=C\N1CCOCC1`
a: Non-Toxic

q: Form field - read-out: Activity; system: OVCAR-8; submitted item: `N#Cc1ccc(N2C(=O)CC[C@H]2C(=O)NCc2ccc(Cl)cc2Cl)cc1`
a: Non-Toxic

q: Form field - read-out: Activity; system: OVCAR-8; submitted item: O=C1N[C@H](C(=O)NCc2ccc(Cl)cc2Cl)C/C1=N\O (stereo in doubt)
a: Non-Toxic

q: Form field - read-out: Activity; system: OVCAR-8; submitted item: `O=C(NCCc1ccccc1)[C@@H]1CCC(=O)N1Cc1ccc(Cl)cc1Cl`
a: Non-Toxic

q: Form field - read-out: Activity; system: OVCAR-8; submitted item: `COc1cc(CNC(=O)[C@@H]2CCC(=O)N2)cc(OC)c1OC`
a: Non-Toxic

q: Form field - read-out: Activity; system: OVCAR-8; submitted item: `CN1C(=O)C(C)(C)C[C@H]1C(=O)NCc1cccc(C(F)(F)F)c1Cl`
a: Non-Toxic

Origin of the recorded values: ChEMBL document CHEMBL4627246
